Origin of values: patent US10654939

Molecular target: T1, recombinant human CD40 (ECD)-his (human, UniProt P25942 21-193)
T1 construct: Bought protein; also called hCD40(ECD)-his; TNFRSF5
T1 sequence (P25942 21-193): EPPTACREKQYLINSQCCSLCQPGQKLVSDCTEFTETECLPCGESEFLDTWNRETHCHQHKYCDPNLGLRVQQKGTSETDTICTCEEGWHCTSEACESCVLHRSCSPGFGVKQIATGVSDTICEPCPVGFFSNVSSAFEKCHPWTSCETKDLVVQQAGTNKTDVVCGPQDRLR
Test: SPR (Biacore 8K), hCD40(ECD)-his coupled to chip, antibody injected
Protocol: SPR assays were used to determine the binding affinity of the chimetic or humanized anti-CD40 antibodies to human CD40 with the BIAcore™ 8K instrument (GE Life Sciences). […] The binding capacity was calculated with the RUs of blank controls subtracted. The association rate (k_a) and dissociation rate (k_d) were calculated using the one-to-one Langmuir binding model (BIA Evaluation Software, GE Life Sciences). The equilibrium dissociation constant K_D was calculated as the k_d/k_a ratio.
observation type: Kd
I'd appreciate it if you included the unit after the number.

chimeric 13A2 antibody (antibody, human IgG2, kappa, V domains shown, Mouse variable regions with human IgG2/kappa constant regions) VH: EVKLEQSGPGLVKPSQSLSLTCSVTGYSITTNYYWNWIRQFPGNKLEWMGYINYDGSNNYNPSLKNRISITRDTSKNQFFLKLNSVTTEDTATYYCARLDYWGQGTSVTVSS VL: DIVMTQSPLSLPVSLGDQASISCRSSQSLENSNGNTFLNWFLQKPGQSPQLLIYKVSNRFSGVLDRFSGTGSGTDFTLTISRVEAEDLGVYFCLQVTHVPFTFGSGTKLEIKR :: 3.58 nM
7B4-VH3VL2 (antibody, human IgG2, V domains shown, Humanized, human IgG2/kappa) VH: QVQLQESGPGLVKPSDTLSLTCAVSGYSITTNYYWNWIRQPPGNKLEWMGYIKYDGSNNYNPSLKNRITISVDTSKNQFSLKLSSVTAVDTAVYYCARLDYWGQGTLVTVSS VL: DVVLTQSPLSLPVTLGQPASISCRSSQSLENSNGNTFLNWFQQRPGQSPRLLIYKVSNRFSGVPDRFSGSGSGTDFTLKISRVEAEDVGVYYCLQVTHVPFTFGQGTKLEIKR :: 4.2 nM
7B4-VH3VL3 (antibody, human IgG2, V domains shown, Humanized, human IgG2/kappa) VH: QVQLQESGPGLVKPSDTLSLTCAVSGYSITTNYYWNWIRQPPGNKLEWMGYIKYDGSNNYNPSLKNRITISVDTSKNQFSLKLSSVTAVDTAVYYCARLDYWGQGTLVTVSS VL: DVVLTQSPLSLPVTLGQPASISCRSSQSLENSNGNTFLNWFQQRPGQSPRLLIYKVSNRFSGVPDRFSGSGSGTDFTLKISRVEAEDVGVYFCLQVTHVPFTFGSGTKLEIKR :: 2.99 nM
7B4-VH0VL0 (antibody, human IgG2, kappa, V domains shown, Humanized, human IgG2/kappa) VH: QVQLQESGPGLVKPSDTLSLTCAVSGYSITTNYYWNWIRQPPGKGLEWIGYIKYDGSNNYNPSLKNRVTMSVDTSKNQFSLKLSSVTAVDTAVYYCARLDYWGQGTLVTVSS VL: DVVMTQSPLSLPVTLGQPASISCRSSQSLENSNGNTFLNWFQQRPGQSPRRLIYKVSNRFSGVPDRFSGSGSGTDFTLKISRVEAEDVGVYYCLQVTHVPFTFGQGTKLEIKR :: 2.47 nM
chimeric 7B4 antibody (antibody, human IgG2, kappa, V domains shown, Mouse variable regions with human IgG2/kappa constant regions) VH: EVQLQESGPGLVKPSQSLSLTCSVTGYSITTNYYWNWIRQFPGNKLEWMGYIKYDGSNNYNPSLKNRISITRDTSKNQFFLKLNSVTTEDTATYYCARLDYWGQGTSVTVSS VL: DIVLTQSPLSLPVSLGDQASISCRSSQSLENSNGNTFLNWFLQKPGQSPQLLIYKVSNRFSGVLDRFSGTGSGTDFTLTISRVEAEDLGVYFCLQVTHVPFTFGSGTKLEIKR :: 3.6 nM

As a next step, examine the binder that follows.
Problem: Supply Kd value. Item: 7B4-VH2VL3 (antibody, human IgG2, kappa, V domains shown, Humanized, human IgG2/kappa) VH: QVQLQESGPGLVKPSDTLSLTCAVSGYSITTNYYWNWIRQPPGKGLEWMGYIKYDGSNNYNPSLKNRITISVDTSKNQFSLKLSSVTAVDTAVYYCARLDYWGQGTLVTVSS VL: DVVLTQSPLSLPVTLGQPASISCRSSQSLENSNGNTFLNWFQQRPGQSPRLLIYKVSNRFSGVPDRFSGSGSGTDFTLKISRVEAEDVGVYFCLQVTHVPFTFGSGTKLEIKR
Result: 3.6 nM
